Each entry below carries its recorded Survival.
- Target Under Test: NAD(P)H dehydrogenase [quinone] 1 (Mus musculus)
- Protocol Description: Induction of quinone reductase 1 activity in mouse Hepa-1c1c7 cells assessed as cell survival at 50 uM by MTT assay relative to control
- Assay type: cell-based
Endpoint Label: Survival (%)

>>> recorded_result("O=C(O)[C@@H]1Cc2c([nH]c3ccccc23)CN1CC1CC1")
90.7
>>> recorded_result("C#CCN1Cc2[nH]c3ccccc3c2C[C@H]1C(=O)O")
91.9
>>> recorded_result("C#CCN1Cc2[nH]c3ccccc3c2C[C@H]1C(=O)OC")
89.6
>>> recorded_result("O=C(O)[C@H]1Cc2c([nH]c3ccccc23)CN1S(=O)(=O)c1ccc(Br)cc1")
88.3
>>> recorded_result("COC(=O)[C@@H]1Cc2c([nH]c3ccccc23)CN1Cc1ccc(O)cc1")
91.7

====

- Target Under Test: NAD(P)H dehydrogenase [quinone] 1 (Mus musculus)
- Protocol Description: Induction of quinone reductase 1 activity in mouse Hepa-1c1c7 cells assessed as cell survival at 50 uM by MTT assay relative to control
- Type: cell-based
Endpoint Label: Survival (%)

>>> recorded_result("Cc1ccc(S(=O)(=O)N2Cc3[nH]c4ccccc4c3C[C@H]2C(=O)O)cc1")
88.8
>>> recorded_result("COC(=O)[C@@H]1Cc2c([nH]c3ccccc23)CN1C(=O)NC12CC3CC(CC(C3)C1)C2")
78.1
>>> recorded_result("O=C(O)[C@@H]1Cc2c([nH]c3ccccc23)CN1Cc1ccc(O)cc1")
88.3
>>> recorded_result("COC(=O)[C@H]1Cc2c([nH]c3ccccc23)CN1CC1CC1")
81.8
>>> recorded_result("O=C(O)[C@H]1Cc2c([nH]c3ccccc23)CN1")
90.7
